- Tested on: biotinyl-Val-oxazolone
- TEST NAME: self-aminoacylation, catalytic enhancement (BVO) (fold over background); higher = more active; k-Seq, kA / k0A0; sequences stand for … in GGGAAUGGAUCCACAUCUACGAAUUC…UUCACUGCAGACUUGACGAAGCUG
Variants at the floor of the assay were thinned out.
RECORDED METRIC: self-aminoacylation

# SEQUENCE CHAIN, self-aminoacylation
rows = [
    ("CUAGUUCAAACACUCGGUCUG [Fam1A.1 aminoacylation ribozyme variant]", 1.31),
    ("AGGUUUGCUAAUAGUCGCAAA [Fam3.1 aminoacylation ribozyme variant]", 2.2),
    ("AUUACCCUAGUCAACGAGUGA [Fam2.1 aminoacylation ribozyme variant]", 3.26),
    ("CAACUUCAACCAAUCGGUCUG [Fam1A.1 aminoacylation ribozyme variant]", 1.61),
    ("AUUACACAGGUCAUCGAGUGA [Fam2.1 aminoacylation ribozyme variant]", 2.44),
    ("AAGUUGGCAAAUAGUCGCAAG [Fam3.1 aminoacylation ribozyme variant]", 1.41),
    ("CCACACUUAAAUCAAUCGGUC [Fam1B.1 aminoacylation ribozyme variant]", 0.914),
    ("AUUUACCUGGGUCAUCGGGUG [Fam2.2 aminoacylation ribozyme variant]", 10.3),
    ("CUACUUCAAACAAUGCGUCUG [Fam1A.1 aminoacylation ribozyme variant]", 0.887),
    ("CCACACUUCAUGGAAUCGGUC [Fam1B.1 aminoacylation ribozyme variant]", 1.1),
]

Hey, quick one: what's self-aminoacylation for each of these?
1. AUCACCCUGGUCAUCUAGUGA [Fam2.1 aminoacylation ribozyme variant]
2. AAUCACCUAGGGCAUCGGGUG [Fam2.2 aminoacylation ribozyme variant]
3. AUUACCCUAGUCAUCGAGUGU [Fam2.1 aminoacylation ribozyme variant]
4. AUACUUCAUACAAUCGGUCUG [Fam1A.1 aminoacylation ribozyme variant]
5. AAGGUUGCUAAUGGUCGCAAG [Fam3.1 aminoacylation ribozyme variant]
6. AUCCACCUAGGUCAUCGGGCG [Fam2.2 aminoacylation ribozyme variant]
7. UUUCACCUAGGUCAUCGGGUU [Fam2.2 aminoacylation ribozyme variant]
8. AUUCAGCUACGUCAUCGGGUG [Fam2.2 aminoacylation ribozyme variant]

5.63
3.49
1.95
0.939
1
3.87
5.7
2.02

----------
Exercise: for every item that follows, state its recorded self-aminoacylation.
- Test system: biotinyl-Val-oxazolone
- TEST NAME: self-aminoacylation, catalytic enhancement (BVO) (fold over background); higher = more active; k-Seq, kA / k0A0; sequences stand for … in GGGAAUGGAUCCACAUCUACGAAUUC…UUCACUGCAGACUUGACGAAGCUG
This sample holds only a part of the variants without activity.
One number for each entry.

// worked examples, self-aminoacylation included
# SEQUENCE CHAIN, self-aminoacylation
measured = [
    ("AUUAUCCUGGCCAUCGAGUGA [Fam2.1 aminoacylation ribozyme variant]", 1.69),
    ("CCACACUUCAUGCAAUCGGUA [Fam1B.1 aminoacylation ribozyme variant]", 0.733),
    ("AAGUUUGCGAAUGGUCGCAAG [Fam3.1 aminoacylation ribozyme variant]", 1.11),
    ("AUUCGCCUAGGUCACCGGGUG [Fam2.2 aminoacylation ribozyme variant]", 4.27),
    ("AUUAACCUGGUGAUCGAGUGA [Fam2.1 aminoacylation ribozyme variant]", 3.16),
]

Could you tell me self-aminoacylation for each of these sequences? They are listed below.
1. AUUACCCUCGUCAUCGACUGA [Fam2.1 aminoacylation ribozyme variant]
2. AUUACCGUGGUUAUCGAGUGA [Fam2.1 aminoacylation ribozyme variant]
3. AUUCACCAAGCUCAUCGGGUG [Fam2.2 aminoacylation ribozyme variant]
4. AUUACCGUGGACAUCGAGUGA [Fam2.1 aminoacylation ribozyme variant]
5. CUACUUCAAUCAAACGGUCUG [Fam1A.1 aminoacylation ribozyme variant]
6. AUUACCCUGAUCAUCUAGUGA [Fam2.1 aminoacylation ribozyme variant]

1: 0.877; 2: 5.1; 3: 2.92; 4: 2.68; 5: 0.794; 6: 6.47

Give one value of self-aminoacylation per listed sequence.
1. AACUUUGGUAAUAGUCGCAAG [Fam3.1 aminoacylation ribozyme variant]
2. AGUCACCUAGUUCAUCGGGUG [Fam2.2 aminoacylation ribozyme variant]
3. AUCACCCUGGUCAUCGAGUAA [Fam2.1 aminoacylation ribozyme variant]
4. AUUACCAUGGUCAUCCAGUGA [Fam2.1 aminoacylation ribozyme variant]

[2.15, 3.29, 2.21, 3.46]

Give self-aminoacylation for each of the items listed below.
1. AUAACCCUGGUCAUCGAGUGU [Fam2.1 aminoacylation ribozyme variant]
2. AUUCACCUAGGGUAUCGGGUG [Fam2.2 aminoacylation ribozyme variant]
3. CUACUUCCAACAGUCGGUCUG [Fam1A.1 aminoacylation ribozyme variant]

1. 7.4
2. 3.99
3. 0.851
